Sourced from patent US20260242458A1

Target: T1, recombinant human IL-25 protein (human, UniProt Q9H293 33-177)
T1 sequence: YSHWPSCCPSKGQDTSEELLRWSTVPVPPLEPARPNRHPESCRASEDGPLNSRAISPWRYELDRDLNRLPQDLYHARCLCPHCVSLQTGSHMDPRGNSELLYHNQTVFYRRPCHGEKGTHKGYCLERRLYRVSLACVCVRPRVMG
Assay: cell-based or functional assay
The entries below are paired with their reported IC50, IL-25 induced NF-kB signaling (SEAP) in HEK-Blue IL-17 reporter cells.
Don't forget the unit after the number, please.

Use these answered entries as a reference point.
IL25Ab7 (antibody, IgG1, V domains shown) VH: QVQLVQSGAEVKKPGASVKVSCKASGYSFTGYTMNWVRQAPGQGLEWMGLINPDNGGTSYKQKFQGRVTMTVDKSISTAYMELSRLRSDDTAVYYCAREGYYGPSPFHHYAMDYWGQGTLVTVSS VL: DIQMTQSPSSLSASVGDRVTITCQASQDISNYLNWYQQKPDGTIKLLIYYTSTLHTGVPSRFSGSGSGTDYTFTISSLQPEDIATYYCQQYSKLPYTFGQGTKLEIK; 0.042 nM
IL25Ab3 (antibody, V domains shown, detected with anti-human IgG or anti-human kappa reagents; also called anti-IL-25Ab3; mouse origin of anti-IL-25 specific antibody) VH: EVQLQQSGPELVKPGGSVRISCKASGYSFTGYTMNWVKQSHGKNLEWIGLINPDNGGTSHKQRFMGKATLTVDKSSSTAYMELLSLTSEDSAVYYCAREGYYGPSPFHHYAMDYWGQGTSVTVSS VL: DIQMTQTTSSLSASLGDRVTISCSASQDISNYLNWYQQKPDGTIKLLIYYTSTLHSGVPSRFSGSGSGTDYSLTISNLEPEDIATYYCQQYSKLPYTFGGGTKLEIK; 0.037 nM
IL25Ab6 (antibody, V domains shown) VH: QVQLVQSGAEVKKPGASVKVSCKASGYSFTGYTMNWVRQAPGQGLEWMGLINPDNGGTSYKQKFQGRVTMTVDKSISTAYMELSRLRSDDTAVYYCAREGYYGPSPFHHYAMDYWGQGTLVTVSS VL: DIQMTQSPSSLSASVGDRVTITCQASQDISNYLNWYQQKPGKAPKLLIYYTSTLHTGVPSRFSGSGSGTDYTFTISSLQPEDIATYYCQQYSKLPYTFGQGTKLEIK; 0.048 nM
IL25Ab11 (antibody, IgG1, V domains shown) VH: QVQLVQSGAEVKKPGASVKVSCKASGYSFTGYTMNWVRQAHGKNLEWMGLINPDNGGTSHKQKFQGRVTMTVDKSISTAYMELSRLRSDDTAVYYCAREGYYGPSPFHHYAMDYWGQGTLVTVSS VL: DIQMTQSPSSLSASVGDRVTITCQASQDISNYLNWYQQKPDGTIKLLIYYTSTLHTGVPSRFSGSGSGTDYTLTISSLQPEDIATYYCQQYSKLPYTFGGGTKLEIK; 0.037 nM

// sample IL25Ab9 (antibody, V domains shown) VH: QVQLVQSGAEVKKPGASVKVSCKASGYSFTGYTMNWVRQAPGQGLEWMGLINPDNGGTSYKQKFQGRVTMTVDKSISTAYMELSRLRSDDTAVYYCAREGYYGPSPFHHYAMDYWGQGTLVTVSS VL: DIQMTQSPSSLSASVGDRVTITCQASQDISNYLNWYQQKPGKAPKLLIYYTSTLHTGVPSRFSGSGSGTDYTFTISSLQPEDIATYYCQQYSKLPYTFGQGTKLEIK , its IC50, IL-25 induced NF-kB signaling (SEAP) in HEK-Blue IL-17 reporter cells was 0.043 nM

// sample IL25Ab10 (antibody, V domains shown) VH: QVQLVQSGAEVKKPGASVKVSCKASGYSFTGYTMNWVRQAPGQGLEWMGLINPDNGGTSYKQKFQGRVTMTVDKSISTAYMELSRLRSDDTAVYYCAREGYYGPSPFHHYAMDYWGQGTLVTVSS VL: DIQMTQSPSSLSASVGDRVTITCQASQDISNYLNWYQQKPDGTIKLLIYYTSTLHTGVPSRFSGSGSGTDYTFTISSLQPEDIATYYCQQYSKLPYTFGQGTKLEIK , its IC50, IL-25 induced NF-kB signaling (SEAP) in HEK-Blue IL-17 reporter cells was 0.052 nM
